Experiment: self-splicing fitness, log relative to wild type (ln ratio); higher = more splicing; Tetrahymena group I intron in knt gene, E. coli kanamycin selection, DiMSum; sequences stand for … in CUCUCU…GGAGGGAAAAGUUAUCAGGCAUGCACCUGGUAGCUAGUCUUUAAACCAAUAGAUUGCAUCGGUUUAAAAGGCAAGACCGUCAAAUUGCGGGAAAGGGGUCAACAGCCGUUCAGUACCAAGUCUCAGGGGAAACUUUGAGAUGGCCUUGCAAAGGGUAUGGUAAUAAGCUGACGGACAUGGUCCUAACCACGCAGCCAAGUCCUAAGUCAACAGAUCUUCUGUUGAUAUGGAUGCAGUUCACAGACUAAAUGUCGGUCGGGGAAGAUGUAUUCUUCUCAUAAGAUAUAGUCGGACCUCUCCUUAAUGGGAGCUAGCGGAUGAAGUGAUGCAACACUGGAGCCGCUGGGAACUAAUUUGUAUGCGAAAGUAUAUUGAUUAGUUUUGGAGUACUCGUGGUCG;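 note: selection with 25 µg/mL kanamycin versus none on LB agar overnight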
Details: 37 °C
Tag: criterion met if measured self-splicing fitness (ln) is not below -2, criterion not met if it is.

Threshold query (self-splicing fitness (ln) >= -2) on "GGAUAGCAAUAUUACGACCA" criterion met

Continuing:
Threshold query (self-splicing fitness (ln) >= -2) on "UUUCAGCAAUAUUACGUUCU" criterion met

---

Test: self-splicing fitness, log relative to wild type (ln ratio); higher = more splicing; Tetrahymena group I intron in knt gene, E. coli kanamycin selection, DiMSum; sequences stand for … in CUCUCU…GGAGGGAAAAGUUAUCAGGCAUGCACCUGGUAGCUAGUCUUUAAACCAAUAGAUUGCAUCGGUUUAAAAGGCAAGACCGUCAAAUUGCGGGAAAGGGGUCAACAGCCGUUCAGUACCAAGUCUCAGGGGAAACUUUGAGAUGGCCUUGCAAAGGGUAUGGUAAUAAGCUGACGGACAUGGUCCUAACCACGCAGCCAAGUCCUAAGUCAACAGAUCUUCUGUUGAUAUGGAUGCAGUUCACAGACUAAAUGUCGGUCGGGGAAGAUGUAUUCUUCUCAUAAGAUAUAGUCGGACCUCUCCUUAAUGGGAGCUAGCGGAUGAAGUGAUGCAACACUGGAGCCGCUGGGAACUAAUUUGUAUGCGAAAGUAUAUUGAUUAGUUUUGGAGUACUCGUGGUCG
Details: 37 °C
measure: self-splicing fitness (ln)
# respond with the number and nothing more

Some sequences with recorded self-splicing fitness (ln):
Reported self-splicing fitness (ln) ( "CGGUAGCAAUAUUACGACAG" ) = 0.021

Reported self-splicing fitness (ln) ( "AUUCAGCAAUAUUACGCGGU" ) = -2.21

Reported self-splicing fitness (ln) ( "GAGGAGCAAUAUUACGUGUG" ) = -2.54

Continuing:
Reported self-splicing fitness (ln) ( "AGGGAGCAAUAUUACGUAAC" ) = -2.99

Reported self-splicing fitness (ln) ( "UAGAAGCAAUAUUACGCAUG" ) = 0.583

Reported self-splicing fitness (ln) ( "GGGCAGCAAUAUUACGUCUG" ) = -1.04

Reported self-splicing fitness (ln) ( "AUCGAGCAAUAUUACGUUUU" ) = -1.23

Reported self-splicing fitness (ln) ( "AUGAAGCAAUAUUACGCCAA" ) = 0.0636

Reported self-splicing fitness (ln) ( "GGUGAGCAAUAUUACGAUGU" ) = -1.69

---

Assay: self-splicing fitness, log relative to wild type (ln ratio); higher = more splicing; Tetrahymena group I intron in knt gene, E. coli kanamycin selection, DiMSum; sequences stand for … in CUCUCU…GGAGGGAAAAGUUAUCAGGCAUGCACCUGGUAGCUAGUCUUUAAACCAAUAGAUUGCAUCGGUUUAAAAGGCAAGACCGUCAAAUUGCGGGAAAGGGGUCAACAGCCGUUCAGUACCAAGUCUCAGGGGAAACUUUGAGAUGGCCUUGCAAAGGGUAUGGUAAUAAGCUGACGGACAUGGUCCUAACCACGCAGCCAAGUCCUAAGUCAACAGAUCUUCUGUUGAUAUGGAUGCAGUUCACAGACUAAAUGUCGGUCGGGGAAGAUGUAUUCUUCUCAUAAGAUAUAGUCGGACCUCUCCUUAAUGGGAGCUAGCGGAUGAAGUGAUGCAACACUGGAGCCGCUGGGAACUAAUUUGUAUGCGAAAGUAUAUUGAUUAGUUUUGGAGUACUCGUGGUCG
Conditions: 37 °C
Tag: label 1 if measured self-splicing fitness (ln) is not below -1, label 0 if it is.

Worked cases, answers included:
Threshold query (self-splicing fitness (ln) >= -1) on "AGUCAGCAAUAUUACGUAUC" label 1

Threshold query (self-splicing fitness (ln) >= -1) on "CUGAAGCAAUAUUACGGCCA" label 0

Threshold query (self-splicing fitness (ln) >= -1) on "UCUUAGCAAUAUUACGGAAG" label 0

Continuing:
Threshold query (self-splicing fitness (ln) >= -1) on "UGUUAGCAAUAUUACGAACA" label 0

---

Assay: self-splicing fitness, log relative to wild type (ln ratio); higher = more splicing; Tetrahymena group I intron in knt gene, E. coli kanamycin selection, DiMSum; sequences stand for … in CUCUCU…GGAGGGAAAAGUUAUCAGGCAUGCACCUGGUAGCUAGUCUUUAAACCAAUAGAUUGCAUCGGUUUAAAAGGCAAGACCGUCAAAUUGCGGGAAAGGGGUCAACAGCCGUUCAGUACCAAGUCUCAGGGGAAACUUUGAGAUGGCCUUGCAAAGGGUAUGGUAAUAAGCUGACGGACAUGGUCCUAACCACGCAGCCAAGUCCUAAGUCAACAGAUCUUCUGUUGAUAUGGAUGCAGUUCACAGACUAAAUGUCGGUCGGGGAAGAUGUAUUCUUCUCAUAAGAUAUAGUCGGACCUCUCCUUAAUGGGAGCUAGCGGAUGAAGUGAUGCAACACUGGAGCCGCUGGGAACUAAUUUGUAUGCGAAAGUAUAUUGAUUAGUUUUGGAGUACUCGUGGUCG
Conditions: 37 °C
measure: self-splicing fitness (ln)
# respond with the number and nothing more

Some sequences with recorded self-splicing fitness (ln):
Reported self-splicing fitness (ln) ( "GUAAAGCAAUAUUACGAGAU" ) = -1.99

Reported self-splicing fitness (ln) ( "CGUCAGCAAUAUUACGAACC" ) = 0.157

Reported self-splicing fitness (ln) ( "UGUUAGCAAUAUUACGUACA" ) = 0.16

Reported self-splicing fitness (ln) ( "CCGAAGCAAUAUUACGAGAG" ) = -1.53

Reported self-splicing fitness (ln) ( "CUCCAGCAAUAUUACGGUUU" ) = -2.39

Reported self-splicing fitness (ln) ( "GAUGAGCAAUAUUACGAAGA" ) = -0.937

Reported self-splicing fitness (ln) ( "GCACAGCAAUAUUACGUCUU" ) = 0.267

Reported self-splicing fitness (ln) ( "AUAUAGCAAUAUUACGACGA" ) = -0.564

Continuing:
Reported self-splicing fitness (ln) ( "UUUUAGCAAUAUUACGAUCU" ) = -0.72

Reported self-splicing fitness (ln) ( "CGCAAGCAAUAUUACGUCUU" ) = -3.12

Reported self-splicing fitness (ln) ( "CAUCAGCAAUAUUACGGAGC" ) = -2.1

Reported self-splicing fitness (ln) ( "AACUAGCAAUAUUACGAGAA" ) = -1.71

Reported self-splicing fitness (ln) ( "UGGGAGCAAUAUUACGACUA" ) = 0.369

---

Assay: self-splicing fitness, log relative to wild type (ln ratio); higher = more splicing; Tetrahymena group I intron in knt gene, E. coli kanamycin selection, DiMSum; sequences stand for … in CUCUCU…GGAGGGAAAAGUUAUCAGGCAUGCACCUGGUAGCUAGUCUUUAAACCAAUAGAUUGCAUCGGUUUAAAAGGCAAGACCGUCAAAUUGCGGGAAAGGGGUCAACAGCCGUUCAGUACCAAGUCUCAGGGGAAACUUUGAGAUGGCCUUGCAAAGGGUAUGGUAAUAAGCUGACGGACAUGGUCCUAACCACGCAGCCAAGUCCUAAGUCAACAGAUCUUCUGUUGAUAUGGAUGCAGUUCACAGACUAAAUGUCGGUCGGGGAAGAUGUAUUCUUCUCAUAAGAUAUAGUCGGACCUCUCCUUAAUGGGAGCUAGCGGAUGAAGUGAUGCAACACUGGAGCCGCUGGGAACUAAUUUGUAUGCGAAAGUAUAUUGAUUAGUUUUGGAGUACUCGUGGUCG
Settings: 37 °C
measure: self-splicing fitness (ln)
# respond with the number and nothing more

Some sequences with recorded self-splicing fitness (ln):
Reported self-splicing fitness (ln) ( "AGUGAGCAAUAUUACGUAUA" ) = -2.72

Reported self-splicing fitness (ln) ( "UAAUAGCAAUAUUACGCCUC" ) = -1.53

Reported self-splicing fitness (ln) ( "UAUAAGCAAUAUUACGUGGU" ) = -2.53

Reported self-splicing fitness (ln) ( "GGCCAGCAAUAUUACGCCUA" ) = -1.05

Reported self-splicing fitness (ln) ( "CCCUAGCAAUAUUACGGUGU" ) = -2.19

Reported self-splicing fitness (ln) ( "CCCGAGCAAUAUUACGCAAC" ) = -2.23

Reported self-splicing fitness (ln) ( "GCCAAGCAAUAUUACGACGA" ) = -1.02

Reported self-splicing fitness (ln) ( "AAGAAGCAAUAUUACGAUAC" ) = -1.31

Please look at the following sequence next.
Reported self-splicing fitness (ln) ( "AAAUAGCAAUAUUACGAAGA" ) = -1.1
